target: Receptor-type tyrosine-protein phosphatase beta (Homo sapiens); experiment: Inhibition of recombinant PTPbeta (unknown origin) using pNPP as substrate by spectrophotometric analysis
Sequence (P23467 whole entry): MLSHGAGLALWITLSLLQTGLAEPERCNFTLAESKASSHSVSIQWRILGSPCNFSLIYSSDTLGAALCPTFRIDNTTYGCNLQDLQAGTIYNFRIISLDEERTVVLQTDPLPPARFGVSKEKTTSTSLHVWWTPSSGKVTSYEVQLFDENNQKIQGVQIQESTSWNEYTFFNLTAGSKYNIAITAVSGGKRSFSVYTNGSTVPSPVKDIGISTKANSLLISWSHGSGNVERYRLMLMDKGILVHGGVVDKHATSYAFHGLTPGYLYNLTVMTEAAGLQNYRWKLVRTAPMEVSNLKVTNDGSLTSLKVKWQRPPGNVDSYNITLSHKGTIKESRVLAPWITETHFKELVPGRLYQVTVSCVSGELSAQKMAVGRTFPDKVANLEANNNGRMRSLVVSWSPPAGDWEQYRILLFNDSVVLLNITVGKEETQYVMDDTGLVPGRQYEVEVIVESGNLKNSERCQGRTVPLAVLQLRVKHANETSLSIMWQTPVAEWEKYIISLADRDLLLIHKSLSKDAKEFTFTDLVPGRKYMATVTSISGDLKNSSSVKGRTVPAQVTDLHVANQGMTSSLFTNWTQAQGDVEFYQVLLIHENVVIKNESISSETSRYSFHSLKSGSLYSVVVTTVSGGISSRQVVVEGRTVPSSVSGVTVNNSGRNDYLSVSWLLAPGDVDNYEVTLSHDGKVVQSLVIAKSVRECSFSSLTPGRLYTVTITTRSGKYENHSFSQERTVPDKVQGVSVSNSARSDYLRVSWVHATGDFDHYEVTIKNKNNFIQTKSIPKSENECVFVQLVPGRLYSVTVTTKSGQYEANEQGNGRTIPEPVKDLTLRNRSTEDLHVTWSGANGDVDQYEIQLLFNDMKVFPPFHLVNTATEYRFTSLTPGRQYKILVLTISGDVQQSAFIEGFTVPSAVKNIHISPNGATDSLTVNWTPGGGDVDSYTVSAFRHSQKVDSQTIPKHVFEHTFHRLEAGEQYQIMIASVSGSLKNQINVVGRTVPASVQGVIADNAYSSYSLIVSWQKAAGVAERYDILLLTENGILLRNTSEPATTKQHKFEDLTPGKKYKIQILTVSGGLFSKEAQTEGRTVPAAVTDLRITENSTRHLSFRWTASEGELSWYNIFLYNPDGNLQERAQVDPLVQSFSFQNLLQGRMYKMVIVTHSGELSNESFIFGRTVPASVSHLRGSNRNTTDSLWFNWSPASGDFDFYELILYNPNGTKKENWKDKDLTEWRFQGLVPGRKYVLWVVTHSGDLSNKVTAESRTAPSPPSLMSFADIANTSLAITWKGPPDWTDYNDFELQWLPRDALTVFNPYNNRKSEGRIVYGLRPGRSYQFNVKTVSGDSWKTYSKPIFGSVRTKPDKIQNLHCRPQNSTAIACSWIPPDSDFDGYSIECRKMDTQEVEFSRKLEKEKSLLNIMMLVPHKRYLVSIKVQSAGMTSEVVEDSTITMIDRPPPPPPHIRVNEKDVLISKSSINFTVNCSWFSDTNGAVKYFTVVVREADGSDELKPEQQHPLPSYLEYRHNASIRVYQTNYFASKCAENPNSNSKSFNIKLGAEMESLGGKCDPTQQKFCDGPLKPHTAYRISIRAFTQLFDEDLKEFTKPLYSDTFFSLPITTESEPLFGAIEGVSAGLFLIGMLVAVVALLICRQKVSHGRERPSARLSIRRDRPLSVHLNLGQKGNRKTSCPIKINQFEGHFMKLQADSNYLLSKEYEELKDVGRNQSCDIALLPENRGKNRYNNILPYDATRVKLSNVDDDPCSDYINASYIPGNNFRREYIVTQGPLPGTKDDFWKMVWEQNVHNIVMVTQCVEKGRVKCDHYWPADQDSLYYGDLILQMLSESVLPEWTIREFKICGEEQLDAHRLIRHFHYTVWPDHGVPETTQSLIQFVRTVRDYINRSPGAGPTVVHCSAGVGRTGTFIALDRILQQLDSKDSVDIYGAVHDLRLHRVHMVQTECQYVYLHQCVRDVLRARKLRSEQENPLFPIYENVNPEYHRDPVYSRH
ASSAY_READOUT: IC50 (µM)
Numbers only, in µM.

# CPD_SMILES, UNITS_LABEL, RESULT_VALUE
records = [
    ("O=C(COc1ccc(-c2oc3cc(O)c(C(=O)O)cc3c2C#Cc2cccc(Cl)c2)cc1)NC1CC1", "µM", 12),
]

**Q:** # lookup: IC50 of `CCCNC(=O)COc1ccc(-c2oc3cc(O)c(C(=O)O)cc3c2C#Cc2cccc(Cl)c2)cc1`
**A:** 0.47
